assay: Antiproliferative activity against human COLO205 cells expressing B-Raf V600E mutant incubated for 68 hrs by MTT assay; type: functional, cell-based; conditions: COLO 205, 68 h
Items are presented alongside their recorded pIC50.
In textbook form, pIC50 equals minus log to base ten of the concentration in mol/L.

Recorded results for 5 compounds are shown here.
structure as smiles	observed result
O=S(=O)(Nc1ccc(F)c(C#Cc2cnc3[nH]ncc3c2)c1F)c1cccnc1	6.35
O=S(=O)(Nc1ccc(F)c(C#Cc2cnc3[nH]ncc3c2)c1F)c1cccc(F)c1	6.12
CCCS(=O)(=O)Nc1ccc(F)c(C(=O)c2c[nH]c3ncc(-c4ccc(Cl)cc4)cc23)c1F	6.51
O=S(=O)(Nc1ccc(F)c(C#Cc2cnc3[nH]ncc3c2)c1F)c1ccccn1	5.57
O=S(=O)(Nc1ccc(F)c(C#Cc2cnc3[nH]nc(-c4ccccc4)c3c2)c1F)c1cccnc1	6.70

[ask] Could you share which pIC50 value was measured for `O=S(=O)(Nc1ccc(F)c(C#Cc2cnc3[nH]ccc3c2)c1F)c1cccnc1` ?
[reply] 5.93

[ask] Note, next up: `O=S(=O)(Nc1ccc(F)c(C#Cc2cnc3ccnn3c2)c1F)c1cccnc1`
[reply] 5.74

[ask] Note, next up: `O=S(=O)(Nc1ccc(F)c(C#Cc2cnc3[nH]ncc3c2)c1F)c1ccccc1`
[reply] 5.68
